# system: T1, mTfR-1 S329A on Expi293 cells (mouse, UniProt Q62351 1-763)
# T1 construct: whole, on cells
# T1 sequence (Q62351 whole entry S329A): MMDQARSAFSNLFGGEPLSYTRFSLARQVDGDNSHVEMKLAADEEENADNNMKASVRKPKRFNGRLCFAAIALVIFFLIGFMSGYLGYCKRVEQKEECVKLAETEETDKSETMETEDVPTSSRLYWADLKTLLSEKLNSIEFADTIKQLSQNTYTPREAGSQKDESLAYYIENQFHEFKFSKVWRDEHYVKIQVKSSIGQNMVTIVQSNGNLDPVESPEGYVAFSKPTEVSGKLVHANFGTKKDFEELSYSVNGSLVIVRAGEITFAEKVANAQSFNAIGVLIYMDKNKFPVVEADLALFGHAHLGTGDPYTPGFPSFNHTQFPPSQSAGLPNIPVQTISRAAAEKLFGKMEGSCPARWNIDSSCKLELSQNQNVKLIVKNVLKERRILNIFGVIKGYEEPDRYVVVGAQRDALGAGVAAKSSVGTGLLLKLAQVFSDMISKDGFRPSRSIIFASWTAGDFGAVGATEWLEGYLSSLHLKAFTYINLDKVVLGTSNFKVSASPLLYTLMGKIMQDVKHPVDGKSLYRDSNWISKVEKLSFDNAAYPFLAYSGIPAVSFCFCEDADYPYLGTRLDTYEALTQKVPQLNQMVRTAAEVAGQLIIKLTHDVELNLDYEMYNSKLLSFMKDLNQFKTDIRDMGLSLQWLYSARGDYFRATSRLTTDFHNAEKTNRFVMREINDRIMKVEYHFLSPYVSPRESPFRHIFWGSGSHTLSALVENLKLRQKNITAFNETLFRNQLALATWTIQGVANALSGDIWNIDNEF
# testName: FACS, transfected Expi293 cells
Listed here are binders together with their documented % double-positive cells vs WT.

binder	% double-positive cells vs WT, %
Clone C variant 13 VNAR-hFc (Fc fusion, not shown: a dimerising Fc or GST, also called Clone C v13; Clone C var; 13) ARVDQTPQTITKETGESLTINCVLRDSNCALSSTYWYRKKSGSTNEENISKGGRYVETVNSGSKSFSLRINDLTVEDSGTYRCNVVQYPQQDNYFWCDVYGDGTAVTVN	73
Clone C VNAR-hFc fusion (Fc fusion, not shown: a dimerising Fc or GST, bivalent VNAR-Fc; also called Clone C-hFc) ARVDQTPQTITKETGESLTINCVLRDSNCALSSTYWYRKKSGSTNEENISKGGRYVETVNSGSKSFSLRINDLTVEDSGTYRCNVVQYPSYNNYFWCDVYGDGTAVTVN	212
Clone C variant 18 VNAR-hFc (Fc fusion, not shown: a dimerising Fc or GST, also called Clone C v18; Clone C var; 18) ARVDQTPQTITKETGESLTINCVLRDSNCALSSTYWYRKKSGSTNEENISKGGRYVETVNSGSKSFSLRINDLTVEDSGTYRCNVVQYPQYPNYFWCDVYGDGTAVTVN	182
8D3 antibody (anti-mouse TfR-1 control; 8D3-hFc formatted antibody) (antibody, V domains shown) VH: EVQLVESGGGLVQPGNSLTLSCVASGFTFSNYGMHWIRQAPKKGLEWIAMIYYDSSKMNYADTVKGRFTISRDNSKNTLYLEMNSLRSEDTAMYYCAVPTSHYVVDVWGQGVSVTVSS VL: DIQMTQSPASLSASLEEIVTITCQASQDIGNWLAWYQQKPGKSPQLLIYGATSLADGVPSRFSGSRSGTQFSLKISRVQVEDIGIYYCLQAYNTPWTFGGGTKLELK	18
